- assay name: gradient 5% acetonitrile 3 min, to 50% in 2 min, to 85% in 15 min, held 3 min, 100 µL/min
- test settings: column: Zorbax Extend-C18 2.1 x 50 mm; eluents: water / acetonitrile, 0.1% formic acid
RP-LC retention time values for the molecules below.
Response body: numeric value in s, unit text excluded.

Some entries whose results are on file:
smiles | metric name | unit label | reported value
COc1ccc(N2CCN(C(=O)Cn3cccc3-c3nnc(-c4ccccc4)o3)CC2)cc1 | RP-LC retention time | s | 907
Cn1cc(C2=CCN(S(=O)(=O)Cc3ccccc3)CC2)c2cccnc21 | RP-LC retention time | s | 898
COc1cn(CC(=O)NCc2ccc(F)cc2)c(CN2CCC(C)CC2)cc1=O | RP-LC retention time | s | 550
CCCn1c(=O)c(N2CCC(NC(=O)Nc3ccc(Cl)cc3)CC2)nc2ccccc21 | RP-LC retention time | s | 1090

For "Cc1ccc(OCc2nc(-c3cccc(-c4ccnn4C)c3)no2)cc1" the molecule record lists RP-LC retention time as 1130

----------
- assay name: gradient 5% acetonitrile 3 min, to 50% in 2 min, to 85% in 15 min, held 3 min, 100 µL/min
- test settings: column: Zorbax Extend-C18 2.1 x 50 mm; eluents: water / acetonitrile, 0.1% formic acid
RP-LC retention time values for the compounds below.
Response body: numeric value in s, unit text excluded.

For CC1(C(=O)NCc2ccccc2)Cn2c(ccc2-c2ccco2)C(=O)N1C1CC1 (centres undefined) the compound record lists RP-LC retention time as 810

For "Cn1c(-c2ccccc2)nn(CCNS(=O)(=O)c2ccc(Cl)s2)c1=O" the compound record lists RP-LC retention time as 748

For "CCNc1cc(N2CCC(CCC(=O)NCc3cccc(Cl)c3)CC2)ncn1" the compound record lists RP-LC retention time as 678

For "CCCN1CCN(S(=O)(=O)c2cc(-c3cc(C(F)(F)F)[nH]n3)sc2C)CC1" the compound record lists RP-LC retention time as 707

----------
- assay name: gradient 5% acetonitrile 3 min, to 50% in 2 min, to 85% in 15 min, held 3 min, 100 µL/min
- test settings: column: Zorbax Extend-C18 2.1 x 50 mm; eluents: water / acetonitrile, 0.1% formic acid
Classes (RP-LC retention time): interval 1 = under 700 s, interval 2 = from 700 s up to 800 s, interval 3 = 800 s and over

compound | discrete label
CCn1c(=O)c(C)nc2cc(-c3noc(C4CC(=O)N(c5ccccc5)C4)n3)ccc21 (stereo not given) | interval 3
CCC(NC(=O)c1cnc(-c2ccccc2)nc1-c1ccncc1)c1ccc(OC)cc1 (stereo not given) | interval 3
O=C(CC1CCN(C(=O)Nc2ccc(Br)cc2)CC1)N1CCCCC1 | interval 3
CCOc1ccccc1NC(=O)NCCc1cn(C)c2ncccc12 | interval 2
Cc1c(C(N)=O)nnn1-c1ccccc1 | interval 1
CCOC(=O)c1cnc2nc(C)ccc2c1Nc1cccc(Br)c1 | interval 2
O=C(Cc1csc2nc(-c3ccccc3)cn12)Nc1cccc(Br)c1 | interval 3
O=C(Nc1ccc(C2(C(=O)N3CCN(c4ccc(F)cc4)CC3)CCC2)cc1)C1CC1 | interval 3

Where would "Cn1c(=O)c(C(=O)N2CCN(c3ccccn3)CC2)nn(-c2ccc(F)cc2)c1=O" land among the classes by reported RP-LC retention time?
interval 1

Where would "CCc1nc2ncc(-c3ccnc(N4CCN(C)CC4)n3)c(C)n2n1" land among the classes by reported RP-LC retention time?
interval 1

Where would "CN(Cc1ccccc1)c1ccc(-c2noc(CN3CCCC3)n2)cn1" land among the classes by reported RP-LC retention time?
interval 1

Where would "CCCC(=O)Nc1ccc(CCc2nc3ccc(C(=O)NCCC4=CCCCC4)cc3[nH]2)cc1" land among the classes by reported RP-LC retention time?
interval 2

Where would "Cc1ccc(S(=O)(=O)N2CCC(n3cnnc3-c3ccccc3)CC2)c(C)c1" land among the classes by reported RP-LC retention time?
interval 3

----------
- assay name: gradient 5% acetonitrile 3 min, to 50% in 2 min, to 85% in 15 min, held 3 min, 100 µL/min
- test settings: column: Zorbax Extend-C18 2.1 x 50 mm; eluents: water / acetonitrile, 0.1% formic acid
So basically, if RP-LC retention time comes in under 900 s it's Yes, and if it's 900 s or more it's No.

compound | discrete label
Cc1ccc(NC(=O)N2C[C@H](c3nc(-c4ccncc4)no3)[C@@H](C)C2)cc1C | Yes
CCc1nc2c(N)cccn2n1 | Yes
Cc1nc(C)c(C(=O)Nc2cc(Cl)ccc2C)s1 | Yes
Cc1nc(N2CCOCC2)c2c(C(=O)N3CCN(c4cccc(C)c4C)CC3)c(C)oc2n1 | No

For this compound, is RP-LC retention time lower than 900 s? CC(C)(C)C1CCC(OCC(O)CN2CCN(CCO)CC2)CC1 (stereo not given)
Yes

For this compound, is RP-LC retention time lower than 900 s? CC(NC(=O)C1CCN(c2cnn(Cc3ccccc3)c(=O)c2)CC1)c1cccs1 (stereo not given)
Yes

For this compound, is RP-LC retention time lower than 900 s? "Cc1ccccc1N1CCN(C(=O)c2cn3c(n2)CCCC3)CC1"
Yes

For this compound, is RP-LC retention time lower than 900 s? CCCCN1CCN(C(=O)C2c3ccccc3CCN2C(C)=O)CC1 (stereo not given)
Yes

For this compound, is RP-LC retention time lower than 900 s? "CC(C)CC(=O)Nc1nc(-c2ccc3ccccc3c2)cs1"
No

For this compound, is RP-LC retention time lower than 900 s? "CCOC(=O)c1cn2nc(SCc3ccccc3)nc2nc1C"
No

----------
- assay name: gradient 5% acetonitrile 3 min, to 50% in 2 min, to 85% in 15 min, held 3 min, 100 µL/min
- test settings: column: Zorbax Extend-C18 2.1 x 50 mm; eluents: water / acetonitrile, 0.1% formic acid
RP-LC retention time values for the molecules below.
Response body: numeric value in s, unit text excluded.

Some entries whose results are on file:
molecule | metric name | reported value
CCOC(=O)Cn1c(C2CC(=O)N(c3ccc(Cl)cc3)C2)nc2ccccc21 (stereo not given) | RP-LC retention time | 858
Cc1cc(N2CCCC2)n2nc(CN3CCC4(CC3)OCCO4)nc2n1 | RP-LC retention time | 572
Cc1cc(NC(=O)C2CCCN(c3ccc(-c4ccc(Cl)cc4)nn3)C2)on1 (stereo not given) | RP-LC retention time | 685

For "CCCn1c(=O)sc2cc(S(=O)(=O)N3CCC(C(=O)NC4CCCC4)CC3)ccc21" the molecule record lists RP-LC retention time as 890

For CCOc1ccc(N2CC(c3nnc(NC(=O)CC4CCCCC4)o3)CC2=O)cc1 (stereo not given) the molecule record lists RP-LC retention time as 804

----------
- assay name: gradient 5% acetonitrile 3 min, to 50% in 2 min, to 85% in 15 min, held 3 min, 100 µL/min
- test settings: column: Zorbax Extend-C18 2.1 x 50 mm; eluents: water / acetonitrile, 0.1% formic acid
metric name: RP-LC retention time
Hi, when you answer, please include the unit after the number. Thanks!

compound | RP-LC retention time
CN1C(=O)c2ccccc2C(C(=O)N2CCN(c3ccccn3)CC2)C1c1cccs1 (centres undefined) | 608 s

For "O=C(COc1ccc(Cl)cc1Cl)Nc1c(-c2ccccc2)nc2ccccn12" the compound record lists RP-LC retention time as 738 s

For "O=C(Cn1c(=O)c(S(=O)(=O)c2ccccc2)cc2ccccc21)N1CCCC1" the compound record lists RP-LC retention time as 757 s

For "CCN1C(=O)c2cccnc2Sc2cc(C(=O)NCc3cccc(F)c3)ccc21" the compound record lists RP-LC retention time as 810 s

For "COc1ccc(-c2nc(Cc3noc(Cc4cccc(F)c4)n3)c(C)o2)cc1" the compound record lists RP-LC retention time as 1000 s

For "Cc1ccc(S(=O)(=O)N2CCCN(c3ccc(=O)n(-c4ccccc4)n3)CC2)c(C)c1" the compound record lists RP-LC retention time as 916 s

----------
- assay name: gradient 5% acetonitrile 3 min, to 50% in 2 min, to 85% in 15 min, held 3 min, 100 µL/min
- test settings: column: Zorbax Extend-C18 2.1 x 50 mm; eluents: water / acetonitrile, 0.1% formic acid
RP-LC retention time values for the compounds below.
Response body: numeric value in s, unit text excluded.

Some entries whose results are on file:
compound | reported value
O=C(CSc1ccc(-c2cccc([N+](=O)[O-])c2)nn1)c1ccc(F)cc1 | 944
COc1ccc(-c2cc3nn(CC(=O)Nc4ccccc4)c(=O)n3c(C)n2)cc1 | 661
CCc1ccc(Nc2cc(C(=O)N3CCCCC3)nc3cc(OC)c(OC)cc23)cc1 | 766
CC(C)CN(CC(C)C)c1nc(-c2ccccc2)nc2ccccc12 | 951
Cn1cnc(S(=O)(=O)N2CCC(C(=O)NCCc3ccccc3)CC2)c1 | 663
Cc1nnc(N2CCCC(C(=O)N3CCc4ccccc43)C2)c2nn(-c3ccc(Cl)cc3)c(C)c12 (centres undefined) | 850
O=C(C1CCN(Cc2cc3ccccc3n2Cc2ccccc2)CC1)N1CCOCC1 | 683
Cc1nc(OCC(=O)Nc2c(C)cccc2C)c2ccccc2n1 | 756

// moving on: another record for RP-LC retention time
For CCc1cccc(NC(=O)C2CCCN(S(=O)(=O)c3cc(-c4noc(CC)n4)cs3)C2)c1 (centres undefined) the compound record lists RP-LC retention time as 1090
